self-splicing fitness (ln): recorded values
Test: self-splicing fitness, log relative to wild type (ln ratio); higher = more splicing; Tetrahymena group I intron in knt gene, E. coli kanamycin selection, DiMSum; sequences stand for … in CUCUCU…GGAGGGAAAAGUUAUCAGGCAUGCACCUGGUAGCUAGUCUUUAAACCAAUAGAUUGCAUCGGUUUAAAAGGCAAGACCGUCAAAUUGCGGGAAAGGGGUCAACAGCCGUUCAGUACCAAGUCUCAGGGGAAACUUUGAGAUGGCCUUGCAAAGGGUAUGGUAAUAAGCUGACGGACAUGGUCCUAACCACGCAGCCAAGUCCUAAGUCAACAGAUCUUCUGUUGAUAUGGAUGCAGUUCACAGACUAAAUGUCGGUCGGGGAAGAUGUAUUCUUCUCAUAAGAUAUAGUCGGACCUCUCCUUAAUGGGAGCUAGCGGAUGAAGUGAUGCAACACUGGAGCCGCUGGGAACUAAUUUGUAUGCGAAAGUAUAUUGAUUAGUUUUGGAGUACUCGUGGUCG;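 note: selection with 25 µg/mL kanamycin versus none on LB agar overnight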
Conditions: 37 °C
Give a plain numeric answer without units written out.

Field: example entries. Status: answers known.
[
  {
    "item-sequence": "AAUCAGCAAUAUUACGCCCU",
    "self-splicing fitness (ln)": 0.0253
  },
  {
    "item-sequence": "AUCGAGCAAUAUUACGCGGA",
    "self-splicing fitness (ln)": -0.974
  },
  {
    "item-sequence": "CAUCAGCAAUAUUACGUAUU",
    "self-splicing fitness (ln)": -1.65
  },
  {
    "item-sequence": "AUUGAGCAAUAUUACGCCCU",
    "self-splicing fitness (ln)": -0.951
  }
]

State the recorded self-splicing fitness (ln) for this entry: GUAGAGCAAUAUUACGGGGG
-2.22

GET /values?readout=self-splicing fitness (ln)&item= CGCCAGCAAUAUUACGAAUG
0.0658

What does the data say about its self-splicing fitness (ln)? Entry: UAUGAGCAAUAUUACGCAAU
-2.32

Form field: reported self-splicing fitness (ln) of GGGAAGCAAUAUUACGAUCC
-1.11
